- TESTED SYSTEM: Ataxin-2 (Homo sapiens) (UniProt Q99700)
- Sequence (Q99700 whole entry): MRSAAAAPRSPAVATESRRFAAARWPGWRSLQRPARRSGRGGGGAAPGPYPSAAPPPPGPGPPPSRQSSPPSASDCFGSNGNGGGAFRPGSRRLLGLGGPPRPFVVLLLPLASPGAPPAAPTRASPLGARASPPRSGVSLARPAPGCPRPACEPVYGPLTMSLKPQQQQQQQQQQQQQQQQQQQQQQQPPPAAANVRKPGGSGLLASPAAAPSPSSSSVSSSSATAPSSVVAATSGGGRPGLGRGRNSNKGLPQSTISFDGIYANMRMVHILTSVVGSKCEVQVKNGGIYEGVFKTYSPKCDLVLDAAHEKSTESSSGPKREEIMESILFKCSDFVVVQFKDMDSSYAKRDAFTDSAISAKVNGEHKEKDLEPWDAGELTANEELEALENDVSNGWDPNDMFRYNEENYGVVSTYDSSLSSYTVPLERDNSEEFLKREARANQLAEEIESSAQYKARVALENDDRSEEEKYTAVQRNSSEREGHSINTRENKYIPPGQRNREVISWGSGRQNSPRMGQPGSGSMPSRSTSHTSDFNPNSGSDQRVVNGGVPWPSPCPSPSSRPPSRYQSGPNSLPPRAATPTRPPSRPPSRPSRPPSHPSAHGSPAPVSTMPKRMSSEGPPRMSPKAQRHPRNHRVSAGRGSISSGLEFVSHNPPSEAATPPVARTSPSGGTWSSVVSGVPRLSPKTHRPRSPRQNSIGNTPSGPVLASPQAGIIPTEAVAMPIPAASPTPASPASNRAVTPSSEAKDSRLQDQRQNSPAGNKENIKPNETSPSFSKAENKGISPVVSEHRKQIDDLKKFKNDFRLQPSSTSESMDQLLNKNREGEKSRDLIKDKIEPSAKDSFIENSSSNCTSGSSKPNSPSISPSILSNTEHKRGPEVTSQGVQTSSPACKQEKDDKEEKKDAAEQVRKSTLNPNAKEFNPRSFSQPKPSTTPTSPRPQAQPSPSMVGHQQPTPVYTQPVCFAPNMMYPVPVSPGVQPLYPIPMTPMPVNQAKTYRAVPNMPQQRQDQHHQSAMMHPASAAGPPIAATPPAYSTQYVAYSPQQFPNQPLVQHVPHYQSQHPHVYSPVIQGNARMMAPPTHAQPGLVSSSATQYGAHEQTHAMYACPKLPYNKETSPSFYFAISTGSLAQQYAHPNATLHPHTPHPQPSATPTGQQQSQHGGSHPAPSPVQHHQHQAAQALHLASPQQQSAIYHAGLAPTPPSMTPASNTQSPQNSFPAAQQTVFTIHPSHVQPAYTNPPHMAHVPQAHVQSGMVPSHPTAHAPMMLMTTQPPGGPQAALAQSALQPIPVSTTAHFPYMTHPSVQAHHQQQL
- TEST SUMMARY: qHTS for Inhibitors of ATXN expression.
- Type: functional
Among all 400,000 compounds or so, about 2,100 (0.53%) were called active. Roughly 14% stayed inconclusive and do not appear here. No rule for the calls is given here. The list comes from a sample in which actives are over-represented; it also holds close analogues and randomly drawn compounds.
Outcomes: YES for active, NO for inactive

- C[C@H](CO)N1C[C@H](C)[C@H](CN(C)C(=O)c2ccccc2)OCc2ccccc2-c2c(n(C)c3ccccc23)C1=O: YES
- COc1ccc(-c2nc(NC(=O)c3ccc(OCC(=O)N4CCOCC4)c(OC)c3)sc2C)cc1: YES
- COc1ccc(C(=O)Nc2ccc(OCC(=O)N3CCOCC3)cc2)c(OC)c1OC: NO
- CCN(CC)c1ccc2cc(-c3nnc(-c4ccncc4)o3)c(=O)oc2c1: NO
- COc1ccccc1NC(=O)c1sc2nc(C)c(C(=O)Nc3ccc(Cl)cc3)c(-c3ccc(Br)cc3)c2c1N: NO
- COc1cc(C(=O)Nc2nc(-c3ccc(Cl)cc3)c(C)s2)ccc1OCC(=O)Nc1ccc(F)cc1: YES
- COc1ccc(-c2nc(NC(=O)c3ccc(OCC(=O)Nc4ccc(F)cc4)c(OC)c3)sc2C)cc1: YES
- COc1ccc(C(=O)OCC(=O)N2CCOCC2)cc1S(=O)(=O)N1CCOCC1: NO
- COc1ccc(C(=O)Nc2nc3n(n2)C(c2ccc(F)cc2)C=C(c2ccc(Cl)cc2)N3)cc1 (centres undefined): NO

----------
- TESTED SYSTEM: Ataxin-2 (Homo sapiens)
- TEST SUMMARY: qHTS for Inhibitors of ATXN expression.
- Format: functional
Hit rate of the full screen: of about 400,000 compounds, about 2,100 (0.53%) were called active. Not shown: some 14% with an inconclusive outcome. No rule for the calls is given here. This excerpt belongs to a sample that is enriched for actives.
Outcomes: yes = active, no = inactive

• CCC(C)n1c(=N)c(C#N)cc2c(=O)n3cccc(C)c3nc21 (stereo unspecified) = no
• COc1ccccc1NC(=O)C(C)Sc1nccn1C (stereo unspecified) = no
• OCCN1CCN(c2ncnc3c2ncn3[C@H]2CN(Cc3ccc(-c4ccccc4)cc3)C[C@@H](CO)O2)CC1 = yes
• CCCCc1c(-c2ccc(F)cc2)ncn1CCc1ccccc1OC = yes
• O=C(Nc1ccc(Cl)cn1)c1ccccc1SCc1ccccc1 = no
• Cc1cc(F)ccc1S(=O)(=O)Nc1ccc2c(c1)CCCN2C(=O)c1cccs1 = yes
• Cc1ccc2nc(-c3ccc(NS(=O)(=O)c4ccc(F)cc4)cc3)sc2c1 = no
• CCOc1ccc(CN2CCCC(N3CCN(c4ccc(OC)cc4)CC3)C2)cc1 (stereo unspecified) = no
• COc1ccccc1CCN1COc2c(cc3c(C)c(C)c(=O)oc3c2C)C1 = no
• O=C(NCCOC(=O)c1ccccc1)c1ccccc1 = no
• Cc1cc(C)nc(NS(=O)(=O)c2ccc(N/C=C\C(=O)c3cccs3)cc2)n1 = no

----------
- TESTED SYSTEM: Ataxin-2 (Homo sapiens)
- TEST SUMMARY: qHTS for Inhibitors of ATXN expression.
- Format: functional
In all, about 400,000 compounds went through this assay and about 2,100 (0.53%) were called active. Roughly 14% stayed inconclusive and do not appear here. This is one part of a sample in which actives are shown more often than they occur.
EXPERIMENTAL READOUT: Potency

* Cc1[nH]n(-c2ccccc2)c(=O)c1N=Nc1nccs1 | 39.8 µM (active)
* CC(=NNc1nc2ccccc2s1)c1ccncn1 | 10 µM (active)
* Cc1ccc(/C=N/Nc2nc3ccccc3s2)o1 | inactive
* C/C(=N\Nc1nc2ccccc2s1)c1ccc(Br)s1 | inactive
* Cc1[nH]n(-c2ccccc2)c(=O)c1N=Nc1c(O)cc(S(=O)(=O)N(C)C)c2ccccc12 | 4.47 µM (active)
* CN(C)S(=O)(=O)c1ccc2[nH]cc(/C=C/c3nc4ccccc4c(=O)n3-c3ccccc3)c2c1 | inactive
